Origin of measurements: ChEMBL document CHEMBL4699480

target: UDP-N-acetylglucosamine--dolichyl-phosphate N-acetylglucosaminephosphotransferase (Homo sapiens, UniProt Q9H3H5)
Sequence (Q9H3H5 whole entry): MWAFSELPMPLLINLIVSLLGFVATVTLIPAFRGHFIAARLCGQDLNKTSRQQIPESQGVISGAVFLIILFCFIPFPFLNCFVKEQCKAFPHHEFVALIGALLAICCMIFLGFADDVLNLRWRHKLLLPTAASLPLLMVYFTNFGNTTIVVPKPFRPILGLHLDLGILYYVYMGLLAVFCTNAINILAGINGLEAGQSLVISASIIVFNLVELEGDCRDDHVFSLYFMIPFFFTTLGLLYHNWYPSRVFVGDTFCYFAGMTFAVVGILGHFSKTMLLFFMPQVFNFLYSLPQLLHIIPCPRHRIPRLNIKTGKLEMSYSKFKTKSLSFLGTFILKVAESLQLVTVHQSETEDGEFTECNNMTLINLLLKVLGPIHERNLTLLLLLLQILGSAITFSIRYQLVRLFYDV
methodSummary: Inhibition of human DPAGT1 expressed in HEK293 (Expi293) cells incubated for 2 hrs using UDP-GlcN-Cg-FITC and alpha-dihydroundecap-renyl phosphate by reversed-phase HPLC analysis
pIC50: −log10 of the molar value.

{"structureAsSmiles": "CO[C@H]1[C@@H](OC)[C@H](n2ccc(=O)[nH]c2=O)O[C@@H]1[C@@H](O[C@H]1OC(C(=O)NCc2ccc(N3CCC(Oc4ccc(OC(F)(F)F)cc4)CC3)cc2)=C[C@H](O)[C@@H]1O)C(N)=O", "pIC50": 4.70}
{"structureAsSmiles": "CO[C@@H]1[C@H](O)[C@@H]([C@@H](O[C@H]2OC(CNCc3ccc(N4CCC(Oc5ccc(OC(F)(F)F)cc5)CC4)cc3)=C[C@H](O)[C@@H]2O)C(N)=O)O[C@H]1n1ccc(=O)[nH]c1=O", "pIC50": "< 4.30"}
{"structureAsSmiles": "NC(=O)[C@H](O[C@H]1OC(C(=O)NCc2ccc(N3CCC(Oc4ccc(OC(F)(F)F)cc4)CC3)cc2)=C[C@H](O)[C@@H]1O)[C@H]1O[C@@H](n2ccc(=O)[nH]c2=O)[C@H](O)[C@@H]1O", "pIC50": "< 4.30"}

----------
The following molecules are listed with their measured IC50 values.
target: UDP-N-acetylglucosamine--dolichyl-phosphate N-acetylglucosaminephosphotransferase (Homo sapiens)
methodSummary: Inhibition of human DPAGT1 expressed in HEK293 (Expi293) cells incubated for 2 hrs using UDP-GlcN-Cg-FITC and alpha-dihydroundecap-renyl phosphate by reversed-phase HPLC analysis
quantityKind: IC50 (µM)

{"molecule": "CO[C@H]1[C@@H](O)[C@H](n2ccc(=O)[nH]c2=O)O[C@@H]1[C@@H](O[C@H]1OC(C(=O)N[C@H]2CCCCNC2=O)=C[C@H](O)[C@@H]1O)C(N)=O [CAPURAMYCIN]", "quantityKind": "IC50", "relationSymbol": ">", "reported": 50}
{"molecule": "CO[C@H]1[C@@H](OC)[C@H](n2ccc(=O)[nH]c2=O)O[C@@H]1[C@@H](O[C@H]1OC(C(=O)N[C@H]2CCCCNC2=O)=C[C@H](O)[C@@H]1O)C(N)=O", "quantityKind": "IC50", "relationSymbol": "=", "reported": 4.5}
{"molecule": "CO[C@@H]1[C@H](O)[C@@H]([C@@H](O[C@H]2OC(C(=O)N[C@H]3CCCCNC3=O)=C[C@H](O)[C@@H]2O)C(N)=O)O[C@H]1n1ccc(=O)[nH]c1=O", "quantityKind": "IC50", "relationSymbol": "=", "reported": 11.5}

----------
target: UDP-N-acetylglucosamine--dolichyl-phosphate N-acetylglucosaminephosphotransferase (Homo sapiens, UniProt Q9H3H5)
methodSummary: Inhibition of human DPAGT1 expressed in HEK293 (Expi293) cells incubated for 2 hrs using UDP-GlcN-Cg-FITC and alpha-dihydroundecap-renyl phosphate by reversed-phase HPLC analysis
pIC50: −log10 of the molar value.

{"structureAsSmiles": "CO[C@H]1[C@@H](O)[C@H](n2ccc(=O)[nH]c2=O)O[C@@H]1[C@@H](O[C@H]1OC(C(=O)NCc2ccc(N3CCC(Oc4ccc(OC(F)(F)F)cc4)CC3)cc2)=C[C@H](O)[C@@H]1O)C(N)=O", "relationSymbol": "=", "pIC50": 6.70}
{"structureAsSmiles": "CO[C@H]1[C@@H](O)[C@H](n2ccc(=O)[nH]c2=O)O[C@@H]1[C@@H](O[C@H]1OC(CNCc2ccc(N3CCC(Oc4ccc(OC(F)(F)F)cc4)CC3)cc2)=C[C@H](O)[C@@H]1O)C(N)=O", "relationSymbol": "<", "pIC50": 4.30}
{"structureAsSmiles": "NC(=O)[C@H](O[C@H]1OC(C(=O)N[C@H]2CCCCNC2=O)=C[C@H](O)[C@@H]1O)[C@H]1O[C@@H](n2ccc(=O)[nH]c2=O)[C@H](O)[C@@H]1O", "relationSymbol": "<", "pIC50": 4.30}
{"structureAsSmiles": "NC[C@H]1O[C@@H](O[C@H]([C@H]2O[C@@H](n3ccc(=O)[nH]c3=O)[C@H](O)[C@@H]2O)[C@H](NCCCC(=O)NCc2ccc(N3CCC(Oc4ccc(OC(F)(F)F)cc4)CC3)cc2)C(N)=O)[C@H](O)[C@@H]1O", "relationSymbol": "=", "pIC50": 8.00}
